- TESTED_TARGET: UniProtKB Q9NR97
- Sequence (Q9NR97 27-1041): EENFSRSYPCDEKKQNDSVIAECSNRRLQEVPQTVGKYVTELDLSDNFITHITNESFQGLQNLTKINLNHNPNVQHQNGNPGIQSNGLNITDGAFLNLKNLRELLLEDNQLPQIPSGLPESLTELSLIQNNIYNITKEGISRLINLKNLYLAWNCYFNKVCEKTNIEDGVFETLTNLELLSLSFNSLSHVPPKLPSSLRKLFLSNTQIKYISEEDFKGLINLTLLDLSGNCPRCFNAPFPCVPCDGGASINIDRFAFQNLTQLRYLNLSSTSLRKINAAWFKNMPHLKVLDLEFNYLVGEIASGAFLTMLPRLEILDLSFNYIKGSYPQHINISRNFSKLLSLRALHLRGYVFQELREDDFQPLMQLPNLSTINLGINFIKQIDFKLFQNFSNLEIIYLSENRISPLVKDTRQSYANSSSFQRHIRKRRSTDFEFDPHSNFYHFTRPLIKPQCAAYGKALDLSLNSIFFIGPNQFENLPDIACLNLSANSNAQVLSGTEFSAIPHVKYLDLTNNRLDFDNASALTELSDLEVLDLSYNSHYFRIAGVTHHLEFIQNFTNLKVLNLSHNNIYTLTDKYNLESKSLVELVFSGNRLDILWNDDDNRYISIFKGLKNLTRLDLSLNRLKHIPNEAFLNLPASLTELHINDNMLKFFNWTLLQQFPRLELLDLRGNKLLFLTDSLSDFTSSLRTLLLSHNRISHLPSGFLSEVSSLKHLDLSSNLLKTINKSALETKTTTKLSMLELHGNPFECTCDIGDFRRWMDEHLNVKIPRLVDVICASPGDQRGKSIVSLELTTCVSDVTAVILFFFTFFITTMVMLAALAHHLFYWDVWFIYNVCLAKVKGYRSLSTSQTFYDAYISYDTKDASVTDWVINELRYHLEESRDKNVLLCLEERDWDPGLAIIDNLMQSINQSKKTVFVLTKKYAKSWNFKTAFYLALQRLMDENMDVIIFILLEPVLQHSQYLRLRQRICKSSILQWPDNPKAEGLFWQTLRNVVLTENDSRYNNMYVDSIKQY
- MEASUREMENT_NOTES: HEK293-humanTLR8 SEAP reporter assay (Example 8)
- TEST_PARAMETERS: HEK293-hTLR8 SEAP reporter cells, 24 hrs
pEC50: −log10 of the molar value.
PROPERTY_LABEL: pEC50

CCCCCNc1nc(N)nc2ccn(Cc3ccc(CN4CC(NC)C4)cc3OC)c12: 6.43
CCCCCNc1nc(N)nc2ccn(Cc3ccc(CN4CCNCC4)cc3OC)c12 [Compound 1, reference compound]: 6.47
CNC1CN(Cc2ccc(Cn3ccc4nc(N)nc(NCc5cc(C)on5)c43)c(OC)c2)C1: < 5.30
CCCCCNc1nc(N)nc2ccn(Cc3ccc(CN4CC5CCC4CN5)cc3OC)c12 (centres unmarked): < 5.30
CCCCCNc1nc(N)nc2ccn(Cc3ccc(CN4CC(C5CCNCC5)C4)cc3OC)c12: < 5.30
CCCCCNc1nc(N)nc2ccn(Cc3ccc(CN4CC5CCCC(C4)NC5)cc3OC)c12 (centres unmarked): < 5.30
CCCCCNc1nc(N)nc2ccn(Cc3ccc(CN4CC(N)C4)cc3OC)c12: 6.43
CNC1CN(Cc2ccc(Cn3ccc4nc(N)nc(NCc5nocc5C)c43)c(OC)c2)C1: < 5.30
CCCCCNc1nc(N)nc2ccn(Cc3ccc(CN4CCC(c5nnc6n5CCNC6)CC4)cc3OC)c12: < 5.30
CCCCCNc1nc(N)nc2ccn(Cc3ccc(CN4CC5(CNC5)C4)cc3OC)c12: 5.94
CCCCCNc1nc(N)nc2ccn(Cc3ccc(CN4CC5(CNCCO5)C4)cc3OC)c12: 6.47
CCCCCNc1nc(N)nc2ccn(Cc3ccc(CN4CC5(C4)CN(C(=O)OC(C)(C)C)CCO5)cc3OC)c12: < 5.30
CCCCCNc1nc(N)nc2ccn(Cc3ccc(CN4CCC5(CCNCC5)CC4)cc3OC)c12: < 5.30
CCCCCNc1nc(N)nc2ccn(Cc3ccc(CN4CC5(CCNCC5)C4)cc3OC)c12: < 5.30

---

- TESTED_TARGET: mouse TLR7 (Mus musculus, UniProt P58681)
- Construct: host or cells: HEK293
- MEASUREMENT_NOTES: HEK293-mouseTLR7 SEAP reporter assay (Example 8)
- Type: cell-based
- TEST_PARAMETERS: HEK293-mTLR7 SEAP reporter cells, 24 hrs
PROPERTY_LABEL: EC50 (nM)

CCCCCNc1nc(N)nc2ccn(Cc3ccc(CN4CC5CCC4CN5)cc3OC)c12 (stereo not shown) [compound 15]: 24.6
CCCCCNc1nc(N)nc2ccn(Cc3ccc(CN4CC5(CNCCO5)C4)cc3OC)c12 [Compound 10]: 3.7
CCCCCNc1nc(N)nc2ccn(Cc3ccc(CN4CCC5(CCNCC5)CC4)cc3OC)c12 [compound 7]: 112
CCCCCNc1nc(N)nc2ccn(Cc3ccc(CN4CC(N)C4)cc3OC)c12 [Compound 13]: 2.7

---

- TESTED_TARGET: human TLR7 (Homo sapiens)
- Construct: host or cells: HEK293
- Sequence (Q9NYK1 27-1049): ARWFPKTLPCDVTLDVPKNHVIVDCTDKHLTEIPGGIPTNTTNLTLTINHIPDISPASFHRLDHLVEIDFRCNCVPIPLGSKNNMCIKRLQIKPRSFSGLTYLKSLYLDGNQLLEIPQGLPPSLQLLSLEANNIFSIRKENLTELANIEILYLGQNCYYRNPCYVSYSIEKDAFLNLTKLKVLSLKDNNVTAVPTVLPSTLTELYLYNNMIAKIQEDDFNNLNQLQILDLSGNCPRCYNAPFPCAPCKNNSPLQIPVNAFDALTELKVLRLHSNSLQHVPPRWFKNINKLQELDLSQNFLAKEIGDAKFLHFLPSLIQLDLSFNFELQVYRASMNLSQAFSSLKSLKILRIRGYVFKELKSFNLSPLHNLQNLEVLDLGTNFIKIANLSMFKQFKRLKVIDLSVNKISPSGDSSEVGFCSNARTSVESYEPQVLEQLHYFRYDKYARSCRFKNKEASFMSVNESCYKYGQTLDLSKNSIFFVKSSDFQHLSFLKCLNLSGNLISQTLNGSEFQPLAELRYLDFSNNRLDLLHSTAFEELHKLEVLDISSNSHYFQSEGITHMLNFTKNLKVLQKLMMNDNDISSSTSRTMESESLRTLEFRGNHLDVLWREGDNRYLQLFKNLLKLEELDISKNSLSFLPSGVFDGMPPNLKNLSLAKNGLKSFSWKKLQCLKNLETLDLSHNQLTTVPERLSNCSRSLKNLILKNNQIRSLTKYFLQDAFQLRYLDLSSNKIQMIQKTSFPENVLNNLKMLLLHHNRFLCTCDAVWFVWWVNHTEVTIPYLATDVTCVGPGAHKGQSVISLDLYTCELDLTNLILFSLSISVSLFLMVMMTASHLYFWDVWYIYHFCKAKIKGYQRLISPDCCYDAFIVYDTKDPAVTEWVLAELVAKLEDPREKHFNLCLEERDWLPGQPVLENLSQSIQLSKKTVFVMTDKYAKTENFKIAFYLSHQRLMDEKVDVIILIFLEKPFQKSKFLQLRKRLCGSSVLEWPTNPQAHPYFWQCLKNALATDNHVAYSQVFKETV
- MEASUREMENT_NOTES: HEK293-humanTLR7 SEAP reporter assay (Example 8)
- Type: cell-based
- TEST_PARAMETERS: HEK293-hTLR7 SEAP reporter cells, 24 hrs
Listed here: items and their measured log10 of EC50.
PROPERTY_LABEL: log10 of EC50 (log10 of the value in µM)

CNC1CN(Cc2ccc(Cn3ccc4nc(N)nc(NCc5nocc5C)c43)c(OC)c2)C1: 0.00
CCCCCNc1nc(N)nc2ccn(Cc3ccc(CN4CC5(C4)CN(C(=O)OC(C)(C)C)CCO5)cc3OC)c12: -4.00
CCCCCNc1nc(N)nc2ccn(Cc3ccc(CN4CC5CCCC(C4)NC5)cc3OC)c12 (centres unmarked): -0.97
CCCCCNc1nc(N)nc2ccn(Cc3ccc(CN4CCNCC4)cc3OC)c12 [Compound 1, reference compound]: -2.72
CCCCCNc1nc(N)nc2ccn(Cc3ccc(CN4CC5(CNC5)C4)cc3OC)c12: -1.87
CCCCCNc1nc(N)nc2ccn(Cc3ccc(CN4CCC5(CCNCC5)CC4)cc3OC)c12: -1.31
CCCCCNc1nc(N)nc2ccn(Cc3ccc(CN4CC5CCC4CN5)cc3OC)c12 (centres unmarked): -2.32

---

# EC50 values compiled below
- TESTED_TARGET: mouse TLR7 (Mus musculus, UniProt P58681)
- Construct: host or cells: HEK293
- Sequence (P58681 27-1050): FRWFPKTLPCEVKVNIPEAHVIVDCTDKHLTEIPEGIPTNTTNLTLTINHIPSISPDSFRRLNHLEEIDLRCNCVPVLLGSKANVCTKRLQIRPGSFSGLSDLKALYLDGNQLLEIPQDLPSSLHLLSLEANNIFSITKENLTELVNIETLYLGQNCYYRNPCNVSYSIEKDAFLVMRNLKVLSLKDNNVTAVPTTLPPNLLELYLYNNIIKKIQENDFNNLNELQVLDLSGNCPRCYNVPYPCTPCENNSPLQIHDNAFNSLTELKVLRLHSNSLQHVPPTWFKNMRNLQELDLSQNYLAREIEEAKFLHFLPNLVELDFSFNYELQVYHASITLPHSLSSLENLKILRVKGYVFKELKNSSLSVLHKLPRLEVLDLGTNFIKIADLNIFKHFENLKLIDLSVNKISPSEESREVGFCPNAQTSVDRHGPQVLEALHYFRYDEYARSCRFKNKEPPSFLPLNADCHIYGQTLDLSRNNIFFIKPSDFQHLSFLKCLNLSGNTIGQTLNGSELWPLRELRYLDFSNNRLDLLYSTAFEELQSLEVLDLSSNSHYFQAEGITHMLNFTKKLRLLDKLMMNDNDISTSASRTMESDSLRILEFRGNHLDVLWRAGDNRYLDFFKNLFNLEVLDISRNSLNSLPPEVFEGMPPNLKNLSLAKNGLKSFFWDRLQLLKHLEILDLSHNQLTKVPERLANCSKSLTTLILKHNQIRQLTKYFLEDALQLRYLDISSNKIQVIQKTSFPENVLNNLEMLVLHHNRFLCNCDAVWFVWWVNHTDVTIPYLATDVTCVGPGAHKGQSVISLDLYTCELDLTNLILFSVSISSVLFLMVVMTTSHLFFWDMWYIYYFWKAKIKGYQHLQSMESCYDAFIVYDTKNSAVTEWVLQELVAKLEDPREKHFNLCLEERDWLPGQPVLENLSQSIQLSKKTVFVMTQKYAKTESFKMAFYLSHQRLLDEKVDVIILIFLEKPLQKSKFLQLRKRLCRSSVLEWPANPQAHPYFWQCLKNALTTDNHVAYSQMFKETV
- MEASUREMENT_NOTES: HEK293 SEAP reporter assay, TLR panel (Example 10)
- Format: cell-based
- TEST_PARAMETERS: 16 hrs
- Text: In this example, the activity of the compound 10 to stimulate different human and mouse TLR pathways was investigated on HEK293 cells transfected with inducible SEAP (secreted embryonic alkaline phosphatase) reporter genes and also expressing different human TLRs (TLR2, TLR3, TLR4, TLR5, TLR7, TLR8, TLR9) or mouse TLRs (TLR2, TLR3, TLR4, TLR5, TLR7, TLR8, TLR13). […]
PROPERTY_LABEL: EC50 (nM)

CCCCCNc1nc(N)nc2ccn(Cc3ccc(CN4CCNCC4)cc3OC)c12 [Compound 1, reference compound]: 2.6
CCCCCNc1nc(N)nc2ccn(Cc3ccc(CN4CC5(CNCCO5)C4)cc3OC)c12: 22.9

---

Measured pEC50 values are reported for all entries that follow.
- TESTED_TARGET: mouse TLR7 (Mus musculus, UniProt P58681)
- Construct: host or cells: HEK293
- MEASUREMENT_NOTES: HEK293-mouseTLR7 SEAP reporter assay (Example 8)
- Format: cell-based
- TEST_PARAMETERS: HEK293-mTLR7 SEAP reporter cells, 24 hrs
pEC50: −log10 of the molar value.
PROPERTY_LABEL: pEC50

CCCCCNc1nc(N)nc2ccn(Cc3ccc(CN4CC5(CNC5)C4)cc3OC)c12 [compound 9]: 7.79
CCCCCNc1nc(N)nc2ccn(Cc3ccc(CN4CC5(C4)CN(C(=O)OC(C)(C)C)CCO5)cc3OC)c12 [Compound 1.7]: 8.17
CCCCCNc1nc(N)nc2ccn(Cc3ccc(CN4CC5(CCNCC5)C4)cc3OC)c12 [compound 8]: 7.75
CCCCCNc1nc(N)nc2ccn(Cc3ccc(CN4CC(C5CCNCC5)C4)cc3OC)c12 [compound 11]: 6.65
CCCCCNc1nc(N)nc2ccn(Cc3ccc(CN4CCNCC4)cc3OC)c12 [Compound 1, reference compound]: 8.34
CCCCCNc1nc(N)nc2ccn(Cc3ccc(CN4CC(NC)C4)cc3OC)c12 [Compound 2]: 7.99
CCCCCNc1nc(N)nc2ccn(Cc3ccc(CN4CC5CCCC(C4)NC5)cc3OC)c12 (centres unmarked) [compound 14]: 6.49
